logP values for the compounds below.
MEASURED QUANTITY: logP

[[record]]
compound = "c1ccc(Cc2ccccc2)cc1"
numeric_result = 4.22

[[record]]
compound = "CCCCC(CC)CCl (centres undefined)"
numeric_result = 5.2

[[record]]
compound = "C=CCCCCCCC=C"
numeric_result = 5.7

[[record]]
compound = "CCCCCCCCCCCCCCCCCCCl"
numeric_result = 8.7

[[record]]
compound = "c1ccc(C2CCCCC2)cc1"
numeric_result = 5.54

[[record]]
compound = "C=C(C)CC(C)(C)C"
numeric_result = 5.44

[[record]]
compound = "BrCC(Br)C(Br)CBr (centres undefined)"
numeric_result = 3.22

[[record]]
compound = "c1ccc2c(c1)ccc1cc3c(ccc4ccccc43)cc12"
numeric_result = 6.88

[[record]]
compound = "CCCCCCCCCCCCCCCCC"
numeric_result = 8.92

[[record]]
compound = "Clc1cc(Cl)c(-c2c(Cl)cc(Cl)cc2Cl)c(Cl)c1"
numeric_result = 6.39

[[record]]
compound = "Brc1ccc(Br)s1"
numeric_result = 4.15

[[record]]
compound = "CCCCCCCCCC"
numeric_result = 6.69

[[record]]
compound = "CC(C)CC(C)(C)C"
numeric_result = 5.83

[[record]]
compound = "CCCCCCC(=O)OC"
numeric_result = 3.1

